Assay: Stability of pure lycopene isomers in n-hexane during storage at room temperature
Type: physicochemical
Details: n-hexane, room temperature, absence of light, 12 days
Method: Pure 5-Z, 9-Z, 13-Z and all-E lycopene were isolated from isomerised tomato oleoresin (submitted to 1 hour heating), by collecting the fractions containing the corresponding peaks after HPLC separation (see below the experimental conditions). […] Lycopene isomer profiles were determined by normal phase HPLC according to the method described by Schierle et al. (Schierle, J., Bretzel, W., Bühler, I., Faccin, N., Hess, D., Steiner, K., Schuep, W. (1997). Food. Chem. 59: 459). […]
MEASUREMENT_KIND: concentration (% of total isomers) 5-Z

For orientation, consider the following solved cases.
>  <SMILES_REPR>
CC(C)=CCC/C(C)=C/C=C/C(C)=C/C=C/C(C)=C/C=C/C=C(C)/C=C/C=C(C)/C=C/C=C(\C)CCC=C(C)C

>  <concentration (% of total isomers) 5-Z>
6.4 % of total isomers

$$$$
>  <SMILES_REPR>
CC(C)=CCC/C(C)=C/C=C/C(C)=C/C=C/C(C)=C\C=C\C=C(C)\C=C\C=C(C)\C=C\C=C(/C)CCC=C(C)C

>  <concentration (% of total isomers) 5-Z>
5.3 % of total isomers

$$$$
>  <SMILES_REPR>
CC(C)=CCC\C(C)=C/C=C/C(C)=C/C=C/C(C)=C/C=C/C=C(C)/C=C/C=C(C)/C=C/C=C(\C)CCC=C(C)C

>  <concentration (% of total isomers) 5-Z>
65.3 % of total isomers

$$$$

Would you kindly look at the next entry?
**Query** Reported concentration (% of total isomers) 5-Z, molecule CC(C)=CCC/C(C)=C/C=C/C(C)=C\C=C\C(C)=C\C=C\C=C(C)\C=C\C=C(C)\C=C\C=C(/C)CCC=C(C)C : ____
**Result** 2.3 % of total isomers

###

# concentration (% of total isomers) x-Z per record follows
test: Stability of pure lycopene isomers in n-hexane during storage at room temperature; type: physicochemical; conditions: n-hexane, room temperature, absence of light, 33 days

For orientation, consider the following solved cases.
>  <SMILES_REPR>
CC(C)=CCC/C(C)=C/C=C/C(C)=C\C=C\C(C)=C\C=C\C=C(C)\C=C\C=C(C)\C=C\C=C(/C)CCC=C(C)C

>  <concentration (% of total isomers) x-Z>
19.7 % of total isomers

$$$$
>  <SMILES_REPR>
CC(C)=CCC/C(C)=C/C=C/C(C)=C/C=C/C(C)=C/C=C/C=C(C)/C=C/C=C(C)/C=C/C=C(\C)CCC=C(C)C

>  <concentration (% of total isomers) x-Z>
8.4 % of total isomers

$$$$
>  <SMILES_REPR>
CC(C)=CCC\C(C)=C/C=C/C(C)=C/C=C/C(C)=C/C=C/C=C(C)/C=C/C=C(C)/C=C/C=C(\C)CCC=C(C)C

>  <concentration (% of total isomers) x-Z>
30.7 % of total isomers

$$$$

Would you kindly look at the next entry?
**Query** Reported concentration (% of total isomers) x-Z, molecule CC(C)=CCC/C(C)=C/C=C/C(C)=C/C=C/C(C)=C\C=C\C=C(C)\C=C\C=C(C)\C=C\C=C(/C)CCC=C(C)C : ____
**Result** 10.2 % of total isomers
